# Measurement Target: 5-hydroxytryptamine receptor 1A (Rattus norvegicus, UniProt P19327)
# Sequence (P19327 whole entry): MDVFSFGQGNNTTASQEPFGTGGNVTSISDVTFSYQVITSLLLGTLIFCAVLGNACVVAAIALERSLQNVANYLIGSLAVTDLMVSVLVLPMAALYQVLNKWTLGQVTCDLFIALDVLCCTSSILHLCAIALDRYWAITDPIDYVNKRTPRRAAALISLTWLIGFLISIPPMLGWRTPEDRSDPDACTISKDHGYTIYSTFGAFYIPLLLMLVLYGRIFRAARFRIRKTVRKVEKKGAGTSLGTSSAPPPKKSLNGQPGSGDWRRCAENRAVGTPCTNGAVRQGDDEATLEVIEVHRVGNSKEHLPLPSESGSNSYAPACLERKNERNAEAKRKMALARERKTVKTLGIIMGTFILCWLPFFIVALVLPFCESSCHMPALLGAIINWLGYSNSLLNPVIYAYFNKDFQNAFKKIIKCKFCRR
# Assay Comment: Binding affinity against rat 5-hydroxytryptamine 1A receptor in CHO cells.
Assay Readout: Ki

Structure Smiles String	Value
CN1CNC(=O)C12CCN(CCCC(=O)c1ccc(F)cc1)CC2	> 10 µM

// for each compound below, give its Ki
1. CN1CN(Cc2ccccc2)C(=O)C12CCN(CCCC(=O)c1ccc(F)cc1)CC2
2. CC(C)N1CN(C)C2(CCN(CCCC(=O)c3ccc(F)cc3)CC2)C1=O
3. CC(C)NC1(C(N)=O)CCN(CCCC(=O)c2ccc(F)cc2)CC1
4. CNC1(C(N)=O)CCN(CCCC(=O)c2ccc(F)cc2)CC1
5. CCCN1CN(C)C2(CCN(CCCOc3ccc(F)cc3)CC2)C1=O

1: 0.265 µM; 2: 6.3 µM; 3: > 10 µM; 4: > 10 µM; 5: > 10 µM

// for each compound below, give its Ki
1. CC(C)N1CNC(=O)C12CCN(CCCC(=O)c1ccc(F)cc1)CC2
2. CCCCN1CN(C)C2(CCN(CCCC(=O)c3ccc(F)cc3)CC2)C1=O
3. CCCN1CN(C)C2(CCN(CCCC(=O)c3ccc(F)cc3)CC2)C1=O
4. CN1CN(C)C2(CCN(CCCC(=O)c3ccc(F)cc3)CC2)C1=O

2.34 µM
> 10 µM
> 10 µM
> 10 µM
